# credit: patent US20040018971A1

# EXPERIMENTAL TARGET: HLA-B*0702 (human)
# METHOD DESCRIPTION: competition vs 125I-labelled probe peptide, purified HLA, gel filtration
OUTCOME MEASURE: pIC50
Hey, just a heads up that pIC50 is the negative log base 10 of the concentration in molar.

> print(dat)
                                     binder  endpoint.value
1  FPAARPAGI (9-mer analog of the HER2/neu peptide starting at position 1157) [Her2/neu.1157.F1I9]            8.03
2              FPSETDGYV [Her2/neu.1120.F1]            6.69
3  FPLDSTFYRSI (11-mer analog of the HER2/neu peptide starting at position 998) [Her2/neu.998.F1I11]            6.64

Shifting focus to the binder that follows.
Lab note: measured pIC50 of FPAARPAGATI (11-mer analog of the HER2/neu peptide starting at position 1157) [Her2/neu.1157.F1I11] was 7.41
